# assay.explanation: Cytotoxicity against human MCF10A cells assessed as reduction in cell viability after 48 hrs by MTT assay
# Type: toxicity, cell-based, MCF-10A
Checkbox rule: IC50 at 48 h lower than 20 µM = Met; IC50 at 48 h not lower than 20 µM = Not met.

Previously resolved entries follow.
[[record]]
smiles_record = "O=C(O)c1ccc(C(=O)/C=C/c2ccc3c(c2)B(O)OC3)cc1"
class_name = "Not met"

[[record]]
smiles_record = "Cn1cccc1C(=O)/C=C/c1ccc2c(c1)B(O)OC2"
class_name = "Not met"

[[record]]
smiles_record = "O=C(/C=C/c1ccc2c(c1)B(O)OC2)c1ccccc1O"
class_name = "Not met"

[[record]]
smiles_record = "O=C(/C=C/c1ccc2c(c1)B(O)OC2)c1ccco1"
class_name = "Met"


-- ask Record CCOC(=O)c1ccc(C(=O)/C=C/c2ccc3c(c2)B(O)OC3)cc1 : is its IC50 at 48 h strictly below 20 µM?
-- reply Met

-- ask Record O=C(/C=C/c1ccc2c(c1)B(O)OC2)c1ccc(O)cc1 : is its IC50 at 48 h strictly below 20 µM?
-- reply Not met

-- ask Record O=C(/C=C/c1ccc2c(c1)B(O)OC2)c1ccc(OCc2ccccc2)cc1 : is its IC50 at 48 h strictly below 20 µM?
-- reply Not met

###

# assay.explanation: Cytotoxicity against human MCF10A cells assessed as reduction in cell viability after 48 hrs by MTT assay
# Type: toxicity, cell-based, MCF-10A
outcome.measure: IC50 at 48 h

Worked examples follow.
[[record]]
smiles_record = "COc1ccccc1C(=O)/C=C/c1ccc2c(c1)B(O)OC2"
observed_value = "9.1 µM"

[[record]]
smiles_record = "Cc1cccc(C(=O)/C=C/c2ccc3c(c2)B(O)OC3)c1"
observed_value = "15.9 µM"


Then there is this molecule:
-- ask Give me measured IC50 at 48 h, please, for this molecule: COc1ccc(C(=O)/C=C/c2ccc3c(c2)B(O)OC3)c(OC)c1
-- reply 12.2 µM
